Listing of recorded IC50 by entry.
# ASSAY_SYSTEM: HIV integrase (Human immunodeficiency virus type 1 group M subtype B, UniProt P12497, F1332H)
# Construct: HIV integrase full length gene (J. Virol., 67, 425-437 (1993)) in which phenylalanine at codon 185 was substituted by histidine
# ASSAY_PROTOCOL: Determination of enzyme (HIV integrase) inhibitory activity
# STUDY_CONDITIONS: recombinant integrase protein (F185H), donor DNA/target DNA, absorbance at 450 nm
Where a name gives a salt, the structure may show the parent alone.
Express it in nM; write the number only.

Some solved cases for reference:
Looking up CC(C)[C@@H](CO)n1cc(C(=O)O)c(=O)c2cc(Cc3cccc(Cl)c3F)c(OCCN3CCCC3)cc21 [Example 4-17] , I found its IC50 recorded as 11

Looking up COc1cc2c(cc1Cc1c(F)ccc(Cl)c1F)c(=O)c(C(=O)O)cn2[C@H](CO)C(C)C [Example 1-2] , I found its IC50 recorded as 3.8

Continuing:
Looking up CC(C)[C@@H](CO)n1cc(C(=O)O)c(=O)c2cc(Cc3cccc(Cl)c3F)c(O[C@H]3CCNC3)cc21 [Example 4-46, hydrochloride] , I found its IC50 recorded as 6.8

Looking up COc1cc2c(cc1Cc1cccc(Cl)c1F)c(=O)c(C(=O)O)cn2[C@H](CO)CS(C)(=O)=O [Example 2-4] , I found its IC50 recorded as 10

Looking up CO[C@H](C)[C@@H](CO)n1cc(C(=O)O)c(=O)c2cc(Cc3cccc(Cl)c3F)ccc21 [Example 2-15] , I found its IC50 recorded as 5.2

Looking up CC(C)[C@@H](CO)n1cc(C(=O)O)c(=O)c2cc(Cc3cccc(Cl)c3F)c(OCc3ccncc3)cc21 [Example 4-60] , I found its IC50 recorded as 4.3
